# credit: patent US20210388084A1

target.of.assay: T1, membrane-bound full-length human CD89 (human, UniProt P24071 22-287)
T1 construct: on stably or transiently transfected HEK293F cells; also called FcalphaRI; huCD89
experiment.description: FACS, HEK293F-huCD89, unlabeled Ab 10 ug/mL first; competitor A59-PE
metric: % blocking of A59-PE binding

binder	metric	val
mouse anti-human CD89-specific antibody 8F3 (antibody, mouse IgG1, V domains shown) VH: EVQLVESGGGLVKPGGSLKLSCAASGFTFSNYGMSWVRQTPDKRLEWVATMHSGGTYTYYPDNVKGRFTISRDNAKNNLYLQMSSLRSEDTAMYYCARETGLYDGLFDFWGQGTTLTVSS VL: DVQITQSPSYLAASPGETITINCRASKTISKYLAWYQEKPGKTNMLLIYSGSTLQSGVPSRFSGSGSGTDFTLTISSLEPEDLAMYYCQQHDEYPWTFGGGTKLEIK	% blocking of A59-PE binding	< 25%
mouse anti-human CD89-specific antibody 16D6 (antibody, mouse IgG1, V domains shown, also called 16D16) VH: QVQLQQSGAELMKPGASVKISCKATGYTFSTYWIEWVKQRPGHGLEWIGEILPGSGSANYNEKFKGKATFTADTSSNTAYMQLSSLTFEDSAVYYCAKGFGSPYYYAMDYWGQGTSVTVSS VL: EIVLTQSPALMAASPGEKVTITCSVSSSISSSNLHWYQQKSETSPKPWIYGTSKLASGVPVRFSGSGSGTSYSLTISNMEAEDAATYYCQQWSSFPLTFGGGTKLEIK	% blocking of A59-PE binding	< 25%

Moving on to another binder below.
**Query** I have this binder here, mouse anti-human CD89-specific antibody 10E7 (antibody, mouse IgG1, V domains shown) VH: EVQLVESGGGLVQPGGSLKLSCAASGLTFSSYGMSWVRQTPDKRLELVATINGNGDITYYPDSVKGRFTISRDNAKNTLYLQMSSLKSEDTAMYYCARDYDYDYAMDYWGQGTSVTVSS VL: DIQMTQSTSSLSASLGDSVTISCRASQDIINYLNWYQQKPDGTVKLLIYYTSRLHSGVPSRFSGSGSGTEYSLTVSNLEKEDIATYFCQQGKTLPYTFGGGTKLEIK , and I need its recorded % blocking of A59-PE binding.
**Result** < 25%
